Source listed as patent US7468369B2.

Tested on: human ABCA1 promoter
Assay: ABCA1 promoter test (luciferase reporter in stably transfected THP1 cell line)
Format: cell-based
Details: Homo sapiens, THP-1, 24 h; read-out: E50 ABCA1
observable: EC50 (nM)
Numbers only, in nM.

# get_value(readout= EC50, system= human ABCA1 promoter) for Cc1ccc(C)c(N2CCN(C(=O)[C@H]3CN(S(=O)(=O)c4cccs4)C[C@H]3c3ccccc3)CC2)c1 (racemic) 291
